The following sequences are shown together with reported PBM binding z-score values.
Tested on: FXR:RXRa (NR concentration 270 nM, RXRa partner concentration 90 nM)
Assay: PBM binding z-score (relative to random genomic background probes); higher = stronger binding; sequences stand for … in GC…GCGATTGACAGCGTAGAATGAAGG
Answer with the value's number alone.

The following sequences have reported results that may help.
# Record Sequence, Subject Of Test, PBM binding z-score
measured = [
    ("CCGACTCGGGCAAAGGTTACCATACTCAGTACGA", "FXR:RXRa (NR concentration 270 nM, RXRa partner concentration 90 nM)", 1.22),
    ("TCTGCTAGGTCGGTTGGTCAGCTAACGAGCTGCC", "FXR:RXRa (NR concentration 270 nM, RXRa partner concentration 90 nM)", -1.29),
    ("ATCGAAAGGTCGGCGAGGTGAGTATACACCGTTT", "FXR:RXRa (NR concentration 270 nM, RXRa partner concentration 90 nM)", 3.23),
]

Recall and state the measured PBM binding z-score for `GCATATAGGTAATACAAGGTGAGAGTCCGATTGT` . 0.288

Recall and state the measured PBM binding z-score for `TCTCGGAGGACACGAATGTCAGAGCTTTCCAGAG` . 0.579

Quote PBM binding z-score reported for `AGAATGAGGTTATTAAGATCAGGGATTTGCGGTC` please. 1.64

Give reported PBM binding z-score value for `ATATCTAGGTAACAAGTTCAGTGAAAGAGAGGAC` 0.903

Dear colleague, please send me the reported PBM binding z-score for `TCTTGTAGATGAAAGGTTAAGAAAGCCGAAGCCT` when you can. 1.26

Please report the measured PBM binding z-score for `AGAATGAGGTTATACGTAGATCAGGGATGAAAGT` 2.37

Determine from records and report PBM binding z-score for `AGAACGAGTGCAATGAGTTGATAGCACGGGTGGC` -0.597

Supply recorded PBM binding z-score for `AATACAGGGTCCCTAGGCCAGAGTAGGTACGAAT` here. -0.341

Give recorded PBM binding z-score. `CCTACTGGGCCAAAAAGGTCATTGTTGCCGATAA` 3.25

---

Tested on: PPARa:RXRa (NR concentration 270 nM, RXRa partner concentration 90 nM)
Assay: PBM binding z-score (relative to random genomic background probes); higher = stronger binding; sequences stand for … in GC…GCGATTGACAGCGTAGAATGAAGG
Readout Label: PBM binding z-score
Write the value as a bare number.

# example entries with known answers
# Record Sequence, Numeric Result
data = [
    ("TCATATAGCTAAACAGGTGAAAGTCCGTAAGTTA", 1.08),
    ("AGTACAGGGTCACTAGGCCAGAGTAGGTACGAAT", 5.73),
    ("ACTCGGAGGACAAAGGGCAGAGCTACGCCAGTGA", 1.88),
    ("CCTAGTAGGCCAGGGTCACTCAAGCATTTCGCTT", 3.69),
    ("TCTATTAGTTGATTAGGCCAACCGAAACAGCGGA", 0.722),
]

Identify measured PBM binding z-score corresponding to `CCTCCGAGGACAGAAGGTCAGAGCTGTCCGCTTT` 1.89

---

Test system: THRa:RXRa (NR concentration 90 nM, RXRa partner concentration 90 nM)
Experiment: PBM binding z-score (relative to random genomic background probes); higher = stronger binding; sequences stand for … in GC…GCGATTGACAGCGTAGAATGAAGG
Readout Label: PBM binding z-score
Just the number, please.

# Record Sequence, PBM binding z-score
rows = [
    ("AGTCAAAGTTCACTAGGTAACCTAAGATTCAGCT", 2.46),
]

Give reported PBM binding z-score value for `CTCGAAAGGTCGGTTGAAGTGAGTATACGGATAA` 1.42

Report PBM binding z-score for `TTACCAAGGTGAAGGTCGTAGATCCCTCTGTAGA` 2.19

Return the recorded PBM binding z-score value; entry: `GGAACGAGGGCATTCGAGTTGGTAGCATGGCGAT` 1.87

Provide one value: measured PBM binding z-score of `TCTATTAGTTGATTAGGGCAACCGCAACAGCGGA` 0.679

Please supply the value of reported PBM binding z-score for the item `AGAACTAGGGCAATGAGTTGATAGCACGGGTGGC` 0.157

State its PBM binding z-score: `CGTCCAAGGTCAAAGGTCAGAGAAGAGATGACGG` 4.84

# return recorded PBM binding z-score for entry `TCGAGTAGGTTAGTCTGGGCATTCAGCCAACATA` 0.0539

---

// reported PBM binding z-score per item
Test system: PPARg:RXRa 30nM:10nM, anti-RXR (NR concentration 30 nM, RXRa partner concentration 10 nM)
Assay: PBM binding z-score (relative to random genomic background probes); higher = stronger binding; sequences stand for … in GC…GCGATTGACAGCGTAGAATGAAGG

# Record Sequence, Subject Of Test, PBM binding z-score
measured = [
    ("AAATGTAGGTTATCGGGTCATTCAGTTTGCGCAT", "PPARg:RXRa 30nM:10nM, anti-RXR (NR concentration 30 nM, RXRa partner concentration 10 nM)", 4.76),
]

State, in one line, measured PBM binding z-score of `ATATGTAGTTTACATCCGGGTCATTCAGGCTATG` 0.609

Return value of PBM binding z-score for input `TGAATGAGGTTATAAGATCAGCGAACGTTGCAAA` , no commentary. 0.811

Give the reported PBM binding z-score for this sequence. `TCTTGTAGATCAACAGGAGGTAAAGAAAGATCGA` 2.4

Kindly indicate its recorded PBM binding z-score. Item: `TGAATGAGGTTATAAGCTCAGGGAACGTTGCAAA` 0.7

Provide one value: measured PBM binding z-score of `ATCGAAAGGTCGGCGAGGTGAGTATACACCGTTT` 0.34

Given the sequence `TAGCCTAGGTCATTGGGCAAGTATAGTACGCATC` , write its reported PBM binding z-score. 0.725

Check the records and state PBM binding z-score for `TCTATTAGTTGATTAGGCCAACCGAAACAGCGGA` 3.98

Please give measured PBM binding z-score of the following entry: `GCTAGGAGGCCATTTGGGTCACTCAATGACGGGC` -0.518

Look up and report measured PBM binding z-score for this entry: `ATCGCTAGGTAACAAGTTCAGTGAAAGAGAGGAC` -0.139

---

Below, each entry is listed alongside its reported PBM binding z-score.
System: LXRb homodimer (NR concentration 270 nM)
Assay: PBM binding z-score (relative to random genomic background probes); higher = stronger binding; sequences stand for … in GC…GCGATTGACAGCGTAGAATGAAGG
Hey, just send me the number, nothing else.

Name the recorded PBM binding z-score of the item `AGAATGAGGTTTTACGTAGATCAGGGAAGAAAGT` in your answer. -0.304

Given `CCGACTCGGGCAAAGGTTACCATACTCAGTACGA` , respond with its PBM binding z-score. -0.792

---

Below, each of the sequences is paired with its reported PBM binding z-score value.
System: FXR:RXRa (NR concentration 270 nM, RXRa partner concentration 90 nM)
Test: PBM binding z-score (relative to random genomic background probes); higher = stronger binding; sequences stand for … in GC…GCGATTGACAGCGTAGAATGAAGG
Please reply with the value in numeric form only.

# Record Sequence, PBM binding z-score
records = [
    ("TTACCAAGGTGAAGGTCGTTGCTCCCTCTGTAGA", 2.26),
]

Annotate the sequence `CCTAGTTGGTCAGGAGGTTACACACCGGATATGA` with its measured PBM binding z-score. 0.491

Identify PBM binding z-score associated with the sequence `CAAACTAGGTCACGATAGGTCAAAGTCGAATGAC` 5.83

---

Test system: VDR:RXRa (NR concentration 270 nM, RXRa partner concentration 90 nM)
Assay: PBM binding z-score (relative to random genomic background probes); higher = stronger binding; sequences stand for … in GC…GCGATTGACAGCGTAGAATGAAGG
# binarize PBM binding z-score: threshold 2 inclusive, high side 1 (yes), low side 0 (no)

# Record Sequence, Qualitative Label
rows = [
    ("GCTATTAGTTGTAAGGGCAACCGAATGATTCTCG", "0 (no)"),
    ("TAGCCTGGGTCATGGGCCAGTATACCACGCGAAC", "0 (no)"),
    ("TTACCAAGGTGAGCCGAGGTCGTTGATCCAACTC", "1 (yes)"),
    ("CAGACTAGGTCACAGAGGTCAAAGTCCGTGCGTA", "1 (yes)"),
    ("CCTTACGGGTCAAGGTTATAGCGCGGGTGGTACG", "1 (yes)"),
]

Identify whether the reported PBM binding z-score of the following sequence is 2 or greater: `AGTCGAAGTTCAGGACGAGGTAACGTAAAGCACG` 0 (no)

Answer whether PBM binding z-score of `TCTGCTAGGTTAGTTGGTCAGCTAACGAGCTGCC` is greater than or equal to 2. 0 (no)
